Values were extracted from PubChem BioAssay (NCATS).

- System: Zika virus NS2B-NS3 protease (unlinked complex)
- assay.overview: Primary screen GU Rhodamine qHTS for Zika virus inhibitors: Unlinked NS2B-NS3 protease assay (AID 1347159); also: nearly all actives have a fitted effect of over 60% in size
- condition.parameters: Recombinant ZIKV NS2B-NS3 protease, Rhodamine110 substrate fluorescence; series mostly up to 107 µM
Records with an inconclusive call do not appear. Calls of active or inactive are those of the source. Calls follow the shape of the dose curve; as a rule, active = well fitted inhibition curve with a large enough effect; inconclusive = small, poorly fitted or top-dose-only effect; inactive = no such curve, though single readings can be large or run the other way.
Outcome codes: active, inactive

{"molecule": "Cn1ncc(Cl)c1-c1cc(C(=O)N[C@H](CN)Cc2ccc(F)c(F)c2)oc1Cl", "assigned.category": "inactive"}
{"molecule": "C/C(=C\\CO[C@@H]1O[C@H](CO[C@H]2OC[C@](O)(CO)[C@H]2O)[C@@H](O)[C@H](O)[C@H]1O)C(C)(C)O", "assigned.category": "inactive"}
{"molecule": "Cc1ccc(C(=O)Nc2ccc(CN3CCN(C)CC3)c(C(F)(F)F)c2)cc1C#Cc1cnc2[nH]ncc2c1", "assigned.category": "inactive"}
{"molecule": "CN(C)C(=O)Nc1cc(-c2ccccc2)ccc1N(C)C", "assigned.category": "inactive"}
{"molecule": "C=C1CC(=O)C2OC2(C)CC2OC(=O)C(=C)C2C(O)C1OC(=O)/C(C)=C\\C (configuration not stated)", "assigned.category": "inactive"}
{"molecule": "CCC(C)CNCC(=O)N1CCC2SC=CC2C1COc1cccc(C)c1 (configuration not stated)", "assigned.category": "inactive"}
{"molecule": "CC(C)(O)c1ccn2c(-c3ccc(F)c(-c4ccc(F)cc4C#N)c3)cnc2c1F", "assigned.category": "inactive"}
{"molecule": "COc1cccc(-c2cc(F)ccc2C2Cc3nc(N)nc(C)c3C(=O)N2)n1 (configuration not stated)", "assigned.category": "inactive"}
{"molecule": "COc1cc2c(c(OC)c1CC=C(C)C)C[C@H](c1ccc(O)c(CC=C(C)C)c1O)CO2", "assigned.category": "active"}
{"molecule": "CCN1CCN(Cc2ccc(NC(=O)c3ccc(C)c(Oc4ccnc5[nH]ccc45)c3)cc2C(F)(F)F)CC1", "assigned.category": "inactive"}
{"molecule": "O=C(NCCN1CCC(n2c(=O)[nH]c3ccccc32)CC1)c1cc2cc(F)ccc2[nH]1", "assigned.category": "inactive"}
{"molecule": "C=CC(=O)N1CC(N2CCN(C(=O)CNc3cc(C4CC4)c(Cl)cc3O)CC2)C1", "assigned.category": "inactive"}
{"molecule": "O=C(NCC1CCN(Cc2cccc(Cl)c2)CC1)[C@@H]1CCCN(c2ncnc3c2nc2n3CCCC2)C1", "assigned.category": "inactive"}
{"molecule": "C=C1C(=O)O[C@@H]2[C@H]1CCC(C)=C(CCC(=O)O)[C@@]2(C)O", "assigned.category": "inactive"}
{"molecule": "O=C(C1CCCCC1)N(CCN1CCN(c2ccccc2O)CC1)c1ccccn1", "assigned.category": "inactive"}
{"molecule": "CN1CCN(Cc2ccc(NC(=O)Cc3ccc(Oc4cc(NC(=O)C5CC5)ncn4)cc3)cc2C(F)(F)F)CC1", "assigned.category": "inactive"}
{"molecule": "C=C1CC[C@@H]2[C@](C)(CO)[C@H](O)CC[C@@]2(C)[C@@H]1/C=C/C1=CCOC1=O", "assigned.category": "inactive"}
{"molecule": "CCOc1ccc(CCNC(=O)c2cc3sc(Cl)cc3n2C)cc1OCC", "assigned.category": "inactive"}
{"molecule": "CCC[C@H](N[C@H]1CCc2cc(F)cc(F)c2C1)C(=O)Nc1cn(C(C)(C)CNCC(C)(C)C)cn1", "assigned.category": "inactive"}
{"molecule": "C[C@@H](NC(=O)C(=O)c1c[nH]c2ccc([N+](=O)[O-])cc12)c1ccccc1", "assigned.category": "inactive"}
{"molecule": "COC1=CC(=O)O/C1=C(/OC)[C@@H]1O[C@H]1c1ccccc1", "assigned.category": "inactive"}
{"molecule": "CCCC(CCC)C(=O)NCc1ccc2c(cnn2-c2ccccc2OC)c1", "assigned.category": "inactive"}
